Test system: erythrocytes from fresh human blood
Conditions: 50 μM peptide, 5% erythrocytes, 1 h at 37° C., relative to 200 μM melittin
Procedure: A description of the methodology used to determine the haemolytic activity is found in Oren et al, Biochemistry, 2000, 39, 6103-6114, and in Raguse et al., J. Am. Chem. Soc., 2002, 124, 12774-12785. The haemolytic activity of the peptides of the invention was evaluated by determining the release of haemoglobin which is produced on placing in contact a solution of the peptides with a suspension of erythrocytes 5% by volume, from fresh human blood. […]
% Haemolysis 50 μM values by entry
Please reply with the bare figure in % and do not write the unit itself.

Example entries and their recorded answers appear below.
# chemSmiles, attributeMeasured, resultNumber
rows = [
    ("CC[C@H](C)[C@H](NC(=O)[C@H](CCCCN)NC(=O)[C@H](CCCCN)NC(=O)[C@H](Cc1ccccc1)NC(=O)[C@H](CC(C)C)NC(=O)[C@H](CCCCN)NC(=O)[C@@H](N)CCCCN)C(=O)N[C@@H](CC(C)C)C(=O)N[C@@H](CCCCN)C(=O)N[C@@H](Cc1ccccc1)C(=O)N[C@@H](CC(C)C)C(N)=O", "% Haemolysis 50 μM", 3),
    ("CC[C@H](C)[C@H](NC(=O)[C@H](CCCCN)NC(=O)[C@H](CCCCN)NC(=O)[C@H](Cc1ccccc1)NC(=O)[C@H](CC(C)C)NC(=O)[C@H](CCCCN)NC(=O)[C@H](CCCCN)NC(C)=O)C(=O)N[C@@H](CC(C)C)C(=O)N[C@@H](CCCCN)C(=O)N[C@@H](Cc1c[nH]c2ccccc12)C(=O)N[C@@H](CC(C)C)C(N)=O", "% Haemolysis 50 μM", 60),
    ("CC[C@H](C)[C@H](NC(=O)[C@H](CCCCN)NC(=O)[C@H](CCCCN)NC(=O)[C@H](Cc1ccccc1)NC(=O)[C@H](CC(C)C)NC(=O)[C@H](CCCCN)NC(=O)[C@H](CCCCN)NS(=O)(=O)c1ccc(C)cc1)C(=O)N[C@@H](CC(C)C)C(=O)N[C@@H](CCCCN)C(=O)N[C@@H](Cc1ccccc1)C(=O)N[C@@H](CC(C)C)C(N)=O", "% Haemolysis 50 μM", 40),
    ("CC[C@H](C)[C@H](NC(=O)[C@H](CCCCN)NC(=O)[C@H](CCCCN)NC(=O)[C@H](Cc1ccccc1)NC(=O)[C@H](CC(C)C)NC(=O)[C@H](CCCCN)NC(=O)[C@@H](N)CCCCN)C(=O)N[C@@H](CC(C)C)C(=O)N[C@@H](CCCCN)C(=O)N[C@@H](Cc1c[nH]c2ccccc12)C(=O)N[C@@H](CC(C)C)C(N)=O", "% Haemolysis 50 μM", 51),
    ("CC[C@H](C)[C@H](NC(=O)[C@H](CCCCN)NC(=O)[C@H](CCCCN)NC(=O)[C@H](Cc1ccccc1)NC(=O)[C@H](CC(C)C)NC(=O)[C@H](CCCCN)NC(=O)[C@H](CCCCN)NS(=O)(=O)c1ccc(C)cc1)C(=O)N[C@@H](CC(C)C)C(=O)N[C@@H](CCCCN)C(=O)N[C@@H](Cc1ccc(O)cc1)C(=O)N[C@@H](CC(C)C)C(N)=O", "% Haemolysis 50 μM", 39),
]

Prompt: Data request, read-out % Haemolysis 50 μM, for CC[C@H](C)[C@H](NC(=O)[C@H](CCCCN)NC(=O)[C@H](CCCCN)NC(=O)[C@H](Cc1ccccc1)NC(=O)[C@H](CC(C)C)NC(=O)[C@H](CCCCN)NC(=O)[C@H](CCCCN)NS(=O)(=O)c1ccc(C)cc1)C(=O)N[C@@H](CC(C)C)C(=O)N[C@@H](CCCCN)C(=O)N[C@H](C(=O)N[C@@H](CC(C)C)C(N)=O)C(C)C
Completion: 25

Prompt: Data request, read-out % Haemolysis 50 μM, for CC[C@H](C)[C@H](NC(=O)[C@H](CCCCN)NC(=O)[C@H](CCCCN)NC(=O)[C@H](Cc1ccccc1)NC(=O)[C@H](CC(C)C)NC(=O)[C@H](CCCCN)NC(=O)[C@H](CCCCN)NC(C)=O)C(=O)N[C@@H](CC(C)C)C(=O)N[C@@H](CCCCN)C(=O)N[C@@H](CCCCN)C(=O)N[C@@H](CC(C)C)C(N)=O
Completion: 1

Prompt: Data request, read-out % Haemolysis 50 μM, for CC[C@H](C)[C@H](NC(=O)[C@H](CCCCN)NC(=O)[C@H](CCCCN)NC(=O)[C@H](Cc1ccccc1)NC(=O)[C@H](CC(C)C)NC(=O)[C@H](CCCCN)NC(=O)[C@@H](N)Cc1c[nH]c2ccccc12)C(=O)N[C@@H](CC(C)C)C(=O)N[C@@H](CCCCN)C(=O)N[C@@H](Cc1ccc(O)cc1)C(=O)N[C@@H](CC(C)C)C(N)=O
Completion: 78

Prompt: Data request, read-out % Haemolysis 50 μM, for CC[C@H](C)[C@H](NC(=O)[C@H](CCCCN)NC(=O)[C@H](CCCCN)NC(=O)[C@H](Cc1ccccc1)NC(=O)[C@H](CC(C)C)NC(=O)[C@H](CCCCN)NC(=O)[C@H](CCCCN)NC(=O)c1ccccc1)C(=O)N[C@@H](CC(C)C)C(=O)N[C@@H](CCCCN)C(=O)N[C@H](C(=O)N[C@@H](CC(C)C)C(N)=O)C(C)C
Completion: 34

Prompt: Data request, read-out % Haemolysis 50 μM, for CC[C@H](C)[C@H](NC(=O)[C@H](CCCCN)NC(=O)[C@H](CCCCN)NC(=O)[C@H](Cc1ccccc1)NC(=O)[C@H](CC(C)C)NC(=O)[C@H](CCCCN)NC(=O)[C@H](Cc1ccc(O)cc1)NC(C)=O)C(=O)N[C@@H](CC(C)C)C(=O)N[C@@H](CCCCN)C(=O)N[C@@H](Cc1ccc(O)cc1)C(=O)N[C@@H](CC(C)C)C(N)=O
Completion: 47

Prompt: Data request, read-out % Haemolysis 50 μM, for CC[C@H](C)[C@H](NC(=O)[C@H](CCCCN)NC(=O)[C@H](CCCCN)NC(=O)[C@H](Cc1ccccc1)NC(=O)[C@H](CC(C)C)NC(=O)[C@H](CCCCN)NC(=O)[C@@H](N)Cc1ccc(O)cc1)C(=O)N[C@@H](CC(C)C)C(=O)N[C@@H](CCCCN)C(=O)N[C@@H](Cc1ccc(O)cc1)C(=O)N[C@@H](CC(C)C)C(N)=O
Completion: 7

Prompt: Data request, read-out % Haemolysis 50 μM, for CC[C@H](C)[C@H](NC(=O)[C@H](CCCCN)NC(=O)[C@H](CCCCN)NC(=O)[C@H](Cc1ccccc1)NC(=O)[C@H](CC(C)C)NC(=O)[C@H](CCCCN)NC(=O)[C@H](CCCCN)NC(C)=O)C(=O)N[C@@H](CC(C)C)C(=O)N[C@@H](CCCCN)C(=O)N[C@@H](Cc1ccccc1)C(=O)N[C@@H](CC(C)C)C(N)=O
Completion: 6
